We begin with a simple list: items and their reported IC50.
- measured on: A17 RT (Human immunodeficiency virus type 1 group M subtype B, UniProt P04585, K690N/Y768C)
- Construct: A17 RT was employed in the assay; made in house; host or cells: bacteria
- measurement notes: biochemical
- Parameters: species or system HIV-1
endpoint: IC50 (µM)

compound="O=C1Nc2ccc(Cl)cc2C(C#Cc2ccccc2[N+](=O)[O-])(C(F)(F)F)O1 (stereo not drawn)" qualifier_symbol== meas_value=19
compound="O=C1Nc2ccc(Cl)cc2C(c2ccccc2)(C(F)(F)F)O1 (stereo not drawn)" qualifier_symbol== meas_value=100
compound="CN(C)CC#CC1(C(F)(F)F)OC(=O)Nc2ccc(Cl)cc21 (stereo not drawn)" qualifier_symbol== meas_value=1.95
compound="CCC1(C2CC2)OC(=S)Nc2ccc(Cl)cc21 (stereo not drawn)" qualifier_symbol=> meas_value=300
compound=CCC1(CC)OC(=O)Nc2ccc(Cl)cc21 qualifier_symbol=> meas_value=300
compound="O=C1Nc2ccc(Cl)cc2C(Sc2ccccc2)(C(F)(F)F)O1 (stereo not drawn)" qualifier_symbol== meas_value=125
